Please go through the items and note down their recombinant UMI read abundance (log10).
assay: recombinant UMI read abundance after kanamycin selection (control-corrected) (log10(CPM+1)); higher = more efficient recombination; extreme values may be limits of the assay; sequences stand for … in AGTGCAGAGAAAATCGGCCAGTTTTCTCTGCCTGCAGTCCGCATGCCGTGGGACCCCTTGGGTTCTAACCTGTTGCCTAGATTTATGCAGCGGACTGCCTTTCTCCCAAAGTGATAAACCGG…AGGTTGGTTTCACT; site = the 11-nt donor
Give bare numbers.

Here is how some sequences turned out for recombinant UMI read abundance (log10).
>>> observed_result("ATGGTATCATGGACCGGTTTTCCCGGTAATCCGTATTTGCA (site ACAGTATCTTG)")
1.69
>>> observed_result("AGGACGACATGGACCGGTTTTCCCGGTAATCCGTATTTGAC (site AGGACGACTGT)")
3.14
>>> observed_result("CCCTAGCCATGGACCGGTTTTCCCGGTAATCCGTATTTGCT (site CCCTAGCCTCG)")
0

Hi! Can you tell me recombinant UMI read abundance (log10) for each of these sequences?
1. TGTACACCATGGACCGGTTTTCCCGGTAATCCGTATTTGGC (site TGTACACCTGA)
2. GAACTTACATGGACCGGTTTTCCCGGTAATCCGTATTTGCG (site GAACTTACTCG)
3. TAGCCTGCATGGACCGGTTTTCCCGGTAATCCGTATTTGGT (site TAGCCTCCTAC)
4. GGTACACCATGGACCGGTTTTCCCGGTAATCCGTATTTGAC (site AGTACACCTGT)
5. CACTACACATGGACCGGTTTTCCCGGTAATCCGTATTTGCT (site CCCTACACTAG)
6. TCCAATTCATGGACCGGTTTTCCCGGTAATCCGTATTTGCC (site TACAATTCTGG)
7. GACAATCCATGGACCGGTTTTCCCGGTAATCCGTATTTGGT (site GACAAGCCTAC)

Response:
1. 0
2. 1.85
3. 0.00394
4. 0
5. 1.16
6. 0
7. 0.0115

Hi! Can you tell me recombinant UMI read abundance (log10) for each of these sequences?
1. CGGGGACCATGGACCGGTTTTCCCGGTAATCCGTATTTGGG (site CGTGGACCTCC)
2. CAGACGACATGGACCGGTTTTCCCGGTAATCCGTATTTGGG (site CAGCCGACTCC)
3. GGGAAGCCATGGACCGGTTTTCCCGGTAATCCGTATTTGTT (site GGGAAGCCTAA)
4. GGGGCACCATGGACCGGTTTTCCCGGTAATCCGTATTTGCA (site GGGGCAACTTG)
5. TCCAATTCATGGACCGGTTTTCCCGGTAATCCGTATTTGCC (site TCCAACTCTGG)
6. CCGTTGGCATGGACCGGTTTTCCCGGTAATCCGTATTTGTG (site CCGTTGGCTCA)
7. CCTAAAGCATGGACCGGTTTTCCCGGTAATCCGTATTTGAA (site CCTAAAGCTAT)
8. ATGTAGGCATGGACCGGTTTTCCCGGTAATCCGTATTTGGC (site ATGTAGGCTTC)

Response:
0.00366
0.0345
0.0967
0
0
0.286
0
1.15

Hi! Can you tell me recombinant UMI read abundance (log10) for each of these sequences?
1. GCGAACACATGGACCGGTTTTCCCGGTAATCCGTATTTGCT (site GCGAACACTAG)
2. GATTTGGCATGGACCGGTTTTCCCGGTAATCCGTATTTGTG (site TATTTGGCTCA)

Response:
1: 1.91; 2: 0.0288

---

assay: recombinant barcode read abundance after kanamycin selection (control-corrected) (log10(CPM+1)); higher = more efficient recombination; sequences stand for … in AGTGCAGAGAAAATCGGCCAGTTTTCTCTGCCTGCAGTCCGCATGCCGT…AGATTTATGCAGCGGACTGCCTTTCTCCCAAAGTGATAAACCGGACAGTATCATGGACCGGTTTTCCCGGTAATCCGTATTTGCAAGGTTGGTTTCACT; site = the 11-nt target
Please go through the items and note down their recombinant barcode read abundance (log10).
Numbers only.

Here is how some sequences turned out for recombinant barcode read abundance (log10).
>>> observed_result("GTATATACTTGGGTTCTAACCTGTTGCCT (site GTTTATACTAG)")
0.00506
>>> observed_result("TACGCGGCTTGGGTTCTAACCTGTTGCCT (site TACGGGGCTAG)")
0.208
>>> observed_result("GATTCTTCTTGGGTTCTAACCTGTTGCCT (site GTTTCTTCTAG)")
0
>>> observed_result("CAACGACCTTGGGTTCTAACCTGTTGCCT (site GAACGACCTAG)")
0.171
>>> observed_result("CGAGCTCCTTGGGTTCTAACCTGTTGCCT (site CGAGCTCCTAT)")
0.157
>>> observed_result("CCTGGGGCTTGGGTTCTAACCTGTTGCCT (site CCTGGGGCTAG)")
0.233
>>> observed_result("AACCTAGCTTGGGTTCTAACCTGTTGCTA (site ACCCTAGCTGA)")
0.0657
>>> observed_result("TCAGCATCTTGGGTTCTAACCTGTTGCCT (site TCAGTATCTAG)")
0.0947
>>> observed_result("AGCCACTCTTGGGTTCTAACCTGTTGCCT (site AGCCACTCTAG)")
1.49

Prompt: Consider the sequence CGAACATCTTGGGTTCTAACCTGTTGCTT (site ACCTACCCTCC) and give its measured recombinant barcode read abundance (log10).
Response: 0

---

test: recombinant UMI read abundance after kanamycin selection (control-corrected) (log10(CPM+1)); higher = more efficient recombination; extreme values may be limits of the assay; sequences stand for … in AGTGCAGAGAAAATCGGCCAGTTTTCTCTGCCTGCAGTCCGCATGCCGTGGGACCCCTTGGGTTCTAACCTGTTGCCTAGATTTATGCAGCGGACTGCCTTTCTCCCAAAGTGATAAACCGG…AGGTTGGTTTCACT; site = the 11-nt donor
Label MET when recombinant UMI read abundance (log10) >= 0.2; otherwise NOT MET.

>>> group("CAAGTGACATGGACCGGTTTTCCCGGTAATCCGTATTTGGG (site CAAGTTACTCC)")
"MET"

Prompt: Has TAGTATACATGGACCGGTTTTCCCGGTAATCCGTATTTGAC (site TAGTATACTGT) a recorded recombinant UMI read abundance (log10) greater than or equal to 0.2?
Response: MET

Prompt: Has ATGGCACCATGGACCGGTTTTCCCGGTAATCCGTATTTGGG (site ATGGCACCTCC) a recorded recombinant UMI read abundance (log10) greater than or equal to 0.2?
Response: NOT MET

Prompt: Has GGCGGCGCATGGACCGGTTTTCCCGGTAATCCGTATTTGTA (site GGCGGCGCTTA) a recorded recombinant UMI read abundance (log10) greater than or equal to 0.2?
Response: MET

Prompt: Has AAGAACCCATGGACCGGTTTTCCCGGTAATCCGTATTTGAA (site AAGAACCCTTT) a recorded recombinant UMI read abundance (log10) greater than or equal to 0.2?
Response: MET

Prompt: Has TGTTCCCCATGGACCGGTTTTCCCGGTAATCCGTATTTGTA (site TGTTCCCCTGA) a recorded recombinant UMI read abundance (log10) greater than or equal to 0.2?
Response: NOT MET

Prompt: Has ATTGAGACATGGACCGGTTTTCCCGGTAATCCGTATTTGAT (site ATTGAGACTAG) a recorded recombinant UMI read abundance (log10) greater than or equal to 0.2?
Response: MET

Prompt: Has ATATATACATGGACCGGTTTTCCCGGTAATCCGTATTTGAC (site ATATATACTGT) a recorded recombinant UMI read abundance (log10) greater than or equal to 0.2?
Response: MET

Prompt: Has GGATAGACATGGACCGGTTTTCCCGGTAATCCGTATTTGCC (site GGGTAGACTGG) a recorded recombinant UMI read abundance (log10) greater than or equal to 0.2?
Response: MET

Prompt: Has TCAGTCTCATGGACCGGTTTTCCCGGTAATCCGTATTTGAT (site TCAGTCTCTAT) a recorded recombinant UMI read abundance (log10) greater than or equal to 0.2?
Response: MET

---

experiment: recombinant barcode read abundance after kanamycin selection (control-corrected) (log10(CPM+1)); higher = more efficient recombination; sequences stand for … in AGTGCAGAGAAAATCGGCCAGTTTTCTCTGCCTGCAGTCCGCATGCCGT…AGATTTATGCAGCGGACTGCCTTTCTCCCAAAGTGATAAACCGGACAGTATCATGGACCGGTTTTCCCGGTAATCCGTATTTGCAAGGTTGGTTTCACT; site = the 11-nt target
Labels assigned by recombinant barcode read abundance (log10) range: class 1 = under 0.1, class 2 = from 0.1 up to 0.2, class 3 = 0.2 and over

>>> group("TCTATCCCTTGGGTTCTAACCTGTTGCCT (site TCAATCCCTAG)")
"class 2"
>>> group("CTCTCATCTTGGGTTCTAACCTGTTGCTT (site CTCTCATCTAG)")
"class 3"
>>> group("TAGTTAGCTTGGGTTCTAACCTGTTGCCT (site TAGTTAGCTCG)")
"class 3"
>>> group("AGACCTCCTTGGGTTCTAACCTGTTGCTT (site AGACATCCTAA)")
"class 1"

Next:
Prompt: Lab note: sort CACCAGACTTGGGTTCTAACCTGTTGCCA (site ACAATCTCTGA) into the matching recombinant barcode read abundance (log10) band.
Response: class 1
